Recorded light emission values for the following compounds
Target under test: QuantiLum Luciferase (Photinus pyralis, UniProt P08659)
Construct: purchased Promega Corporation E170
Sequence (P08659 whole entry): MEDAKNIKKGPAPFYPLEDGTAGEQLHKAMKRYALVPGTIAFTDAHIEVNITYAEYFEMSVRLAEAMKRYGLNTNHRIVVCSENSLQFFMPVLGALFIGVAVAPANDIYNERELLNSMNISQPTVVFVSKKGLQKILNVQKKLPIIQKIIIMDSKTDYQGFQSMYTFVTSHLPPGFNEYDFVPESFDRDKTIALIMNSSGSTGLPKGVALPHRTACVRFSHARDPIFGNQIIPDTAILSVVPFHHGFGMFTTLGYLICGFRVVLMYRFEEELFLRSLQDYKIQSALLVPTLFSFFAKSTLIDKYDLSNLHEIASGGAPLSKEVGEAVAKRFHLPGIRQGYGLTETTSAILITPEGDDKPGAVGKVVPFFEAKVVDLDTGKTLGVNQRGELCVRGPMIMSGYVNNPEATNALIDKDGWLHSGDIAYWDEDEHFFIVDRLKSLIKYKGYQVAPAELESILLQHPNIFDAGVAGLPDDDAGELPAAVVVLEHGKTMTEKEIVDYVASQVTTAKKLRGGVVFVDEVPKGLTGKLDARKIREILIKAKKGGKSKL
Measurement protocol: Scaffolds: light emission of luciferin derivatives with QuantiLum luciferase alone, + Co A, + DTT, + Co A and DTT
Assay type: biochemical, firefly
Measurement conditions: Derivative Conc. 3.13; DTT
Form rule: numeric answer, no unit written next to it.

Recorded light emission values for O=C(O)[C@H]1CSC(c2nc3ccc(OCCO)cc3s2)=N1 [2hydroxyethoxyluciferin ether] with QuantiLum Luciferase (Photinus pyralis, UniProt P08659), please?
36967

Recorded light emission values for COC(=O)[C@H]1CSC(c2ccc3cc(Oc4ccc(C(F)(F)F)cc4[N+](=O)[O-])ccc3n2)=N1 with QuantiLum Luciferase (Photinus pyralis, UniProt P08659), please?
1458

Recorded light emission values for NCCCOc1ccc2nc(C3=N[C@@H](C(=O)O)CS3)sc2c1 with QuantiLum Luciferase (Photinus pyralis, UniProt P08659), please?
200074

Recorded light emission values for COc1ccc2nc(C3=N[C@@H](C(=O)O)CS3)sc2c1 [luciferin 6-methyl ether, D-luciferin 6' methyl ether, reference compound] with QuantiLum Luciferase (Photinus pyralis, UniProt P08659), please?
3332
